Target: BRD4 (Homo sapiens)
Test: Time Resolved Fluorescence Resonance Energy Transfer (TR-FRET) binding assay, BRD4
Conditions: one of the FRET assays described; read-out: FRET BRD4 IC50
pIC50: −log10 of the molar value.

Compound	pIC50
COc1ccc(C(C2CCOCC2)n2c3cc(C(C)(C)O)ccc3c3ncc(-c4c(C)nnn4C)cc32)cc1 (single isomer, unassigned) [Example 250]	> 7.60
[2H]c1c(C([2H])(C2CCOCC2)n2c3cc(C(C)(C)O)ccc3c3ncc(-c4c(C)noc4C([2H])([2H])[2H])cc32)noc1C([2H])([2H])[2H] (stereo not shown) [Example 327]	> 8.30
Cc1nnn(C)c1-c1cnc2c3c(F)ccc(CO)c3n([C@H](c3ccccc3)C3CCOCC3)c2c1	> 8.30
COc1ccc(C(C2CCOCC2)n2c3cc(C(C)(C)O)ccc3c3ncc(-c4c(C)nnn4C)cc32)cc1 (single isomer, unassigned) [Example 249]	> 8.30
[2H]C([2H])([2H])c1nnn(C)c1-c1cnc2c3c(S(C)(=O)=O)cc(OC)c(OC)c3n([C@H](c3ccccc3)C3CCOCC3)c2c1	> 8.30
Cc1noc(C)c1-c1cnc2c3ccc(C(C)(C)O)cc3n(Cc3ccccc3)c2c1	> 5.82
[2H]C([2H])([2H])c1nnn(C)c1-c1cnc2c3c(F)ccc(S(C)(=O)=O)c3n([C@H](c3ccc(F)cc3)C3CCOCC3)c2c1	> 8.30
[2H]C([2H])([2H])c1nnn(C)c1-c1cnc2c3c(S(C)(=O)=O)cc(F)c(F)c3n(C(c3ccccc3)C3CCC(F)(F)CC3)c2c1 (single isomer, unassigned)	> 8.30
Cc1noc(C)c1-c1cnc2c3ccc(C(C)(C)O)cc3n([C@@H](c3ccc(F)cc3)C3CCC3)c2c1	> 7.60
Cc1nnn(C)c1-c1cnc2c3ccc(C(C)(C)O)cc3n(C(c3ccccc3)C3CCC(F)(F)CC3)c2c1 (single isomer, unassigned) [Example 205]	> 8.30
Cc1nnn(C)c1-c1cnc2c3ccc(C(C)(C)O)cc3n([C@@H](c3ccccc3)C3CCOCC3)c2c1	> 7.60
CCOc1nnn(C)c1-c1cnc2c3ccc(C(C)(C)O)cc3n([C@H](c3ccccc3)C3CCOCC3)c2c1	> 8.30
Cc1nnn(C)c1-c1cnc2c3c(F)cc(C(C)(C)O)cc3n(C(c3cc(F)ccc3F)C3CCOCC3)c2c1 (single isomer, unassigned) [Example 106]	> 8.30
